system under test: CHK1 (Homo sapiens, UniProt O14757)
Construct: purchased Perkin Elmer ProfilerPro assay kit 1
Sequence (O14757 whole entry): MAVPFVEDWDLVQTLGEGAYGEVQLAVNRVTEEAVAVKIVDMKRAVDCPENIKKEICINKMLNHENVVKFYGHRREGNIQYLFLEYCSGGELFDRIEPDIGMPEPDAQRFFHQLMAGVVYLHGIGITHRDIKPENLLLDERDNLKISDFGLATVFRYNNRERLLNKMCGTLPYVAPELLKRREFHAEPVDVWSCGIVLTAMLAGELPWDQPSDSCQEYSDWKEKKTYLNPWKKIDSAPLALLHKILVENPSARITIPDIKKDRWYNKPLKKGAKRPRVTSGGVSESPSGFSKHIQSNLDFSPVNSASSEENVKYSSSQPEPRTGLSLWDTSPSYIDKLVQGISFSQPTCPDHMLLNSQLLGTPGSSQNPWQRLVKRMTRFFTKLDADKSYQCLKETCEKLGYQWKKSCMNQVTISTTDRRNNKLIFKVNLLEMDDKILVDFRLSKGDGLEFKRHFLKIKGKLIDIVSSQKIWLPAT
test protocol: 26-kinase panel mobility shift assay, single concentration
Format: biochemical
setup conditions: read-out: % Inhibition CHK1
measurement name: inhibition at 100 µM (%)
One number for each entry, in %.

Sample records with inhibition at 100 µM:
Nc1cc(-c2ccnc3ccccc23)c[nH]c1=O :: 26
Cc1nc(O)c(N)cc1-c1ccncc1 :: 4
COc1ncc(-c2ccncc2)cc1N :: 1
Cn1cc(-c2c[nH]c(=O)c(N)c2)cn1 :: 77
CNc1nccc(-c2c[nH]c(=O)c(N)c2)n1 :: 79
Nc1ccc[nH]c1=O :: 37

Query string: Please state recorded inhibition at 100 µM (tested on CHK1 (Homo sapiens, UniProt O14757)) of Nc1cc(-c2ccnc(NC3CC3)n2)c[nH]c1=O
Result string: 26

Where do the numbers come from? From paper PMC6008489.
